Cited source for all entries: ChEMBL document CHEMBL1141332

# System: KM12
# Measurement notes: Cytotoxicity against human KM12 cells
# Type: functional
# Measurement setup: read-out: Log TGI (converted)
Could you please report measured TGI for the items listed next?

CC1OC(=O)[C@H]2[C@H]1[C@@H](O)C[C@H]1[C@]3(C)CC[C@H]4C(C)(C)CCC[C@]4(C)[C@H]3C[C@@H](O)[C@]21C (some centres undefined) = 69.2 µM
CC(=O)O[C@@H]1C[C@H]2[C@]3(C)CC[C@H]4C(C)(C)CCC[C@]4(C)[C@H]3C[C@H](O)[C@]2(C)[C@@H](C=O)[C@@H]1C(C)=O = 3.55 µM
CC(=O)O[C@H]1C[C@H]2[C@@](C)(CC[C@H]3C(C)(C)CCC[C@@]32CO)[C@@H]2CC=C(C(C)=O)[C@H](C=O)[C@@]12C = 1.7 µM

Note: attention shifts to another entry.
[Q] // map CC(=O)C1=CC[C@H]2[C@]3(C)CC[C@H]4C(C)(C)CCC[C@]4(C(=O)O)[C@H]3CC(=O)[C@]2(C)[C@H]1C=O to recorded TGI (system: KM12)
[A] 3.89 µM
